# Test system: IGROV1 ovarian
# assay-remarks: NCI-60 one-dose screen, 48 h (100 = growth as untreated, 0 = no growth, -100 = all killed)
# condition-details: 10 µM unless noted
This is part of a sample that, as a whole, favours compounds with a hit. Of some 83,000 tested, about 20% had one in any assay. Calls of active or inactive are those of the source. The calls were made as follows: active = growth percent below 10; inactive = the rest.
Quick reference: growth of the listed items.
property-name: growth

>>> value("Cc1ccc2c(C(C[N+](=O)[O-])c3ccccc3)c(-c3ccccc3)[nH]c2c1 (stereo not given)")
"27.4% [9.5 µM] (inactive)"
>>> value("CN1CCN(CCCOc2cccc3nc(Nc4cc(Cl)cc(Cl)c4)ccc23)CC1")
"42.8% (inactive)"
>>> value("C=C(C)C(=O)Nc1ccc(NC(C)C)cc1")
"120% (inactive)"
>>> value("COc1ccc(C2CC(c3ccc(Cl)cc3)=NN2/C=C2\\SC(=S)N(NC(=O)Cc3ccccc3Nc3c(Cl)cccc3Cl)C2=O)cc1 (stereo not given)")
"38.9% (inactive)"
>>> value("N=C(N)c1ccc(-c2ccc(-c3ccc4ccccc4c3)s2)s1")
"5.62% (active)"
>>> value("O=c1cc(CSc2nnc(SCc3cc(=O)oc4c3ccc3ccccc34)o2)c2ccc3ccccc3c2o1")
"94.9% (inactive)"
>>> value("CN(C)c1ccc(N=Nc2ccc(Br)cn2)c(O)c1")
"16% (inactive)"
>>> value("c1ccc(-c2c(-c3ccccc3)[n+](Cc3ccc4ccccc4c3)c(-c3ccc(-c4nc5ccccc5s4)cc3)n2Cc2ccc3ccccc3c2)cc1")
"-84.8% (active)"
>>> value("Cc1cc(C)nc(SC2=C(Nc3cccc(Cl)c3)C(=O)N(Cc3ccccc3)C2=O)n1")
"43.3% [30 µM] (inactive)"
>>> value("O=[N+]([O-])c1ccc2c(c1)Cc1cc(F)ccc1-2")
"105% (inactive)"
>>> value("O=C(COc1ccc(/C=C2\\CSc3ccccc3C2=O)cc1)Nc1nccs1")
"-51.8% (active)"
>>> value("COc1cc(/C=C/c2cc(/C=C/c3ccc(O)c(OC)c3)n(-c3c(C)cccc3C)c(=O)n2)ccc1O")
"9.72% (active)"
>>> value("Cc1nc(Nc2ccc(F)c(Cl)c2)sc1C(=O)O")
"19.3% (inactive)"
>>> value("C=C(C)[C@@H]1CC[C@]2(C(=O)OC)CC[C@]3(C)[C@H](CC[C@@H]4[C@@]5(C)C/C(=C/c6cccc(I)c6)C(=O)C(C)(C)[C@@H]5CC[C@]43C)[C@@H]12")
"103% (inactive)"
>>> value("Cc1nc(/N=C(\\N)NC(=O)Nc2cccc([N+](=O)[O-])c2)sc1C")
"76.1% (inactive)"
>>> value("O=C(O)COc1ccc(Cl)cc1C1CCCCC1")
"117% (inactive)"
>>> value("CC/C=C\\C[C@H]1C/C=C2/C(=O)C=C[C@H]2C/C=C\\CCCC(=O)O1")
"12.4% (inactive)"
>>> value("O=C1/C(=C/c2ccccc2O)N=C2SCCCN12")
"91.3% (inactive)"
>>> value("CSc1ccc(-c2ccccc(=O)c2O)cc1")
"12.7% (inactive)"
>>> value("CN(C)c1ccc(NC(=O)c2ccc(/C=C/C(=O)c3ncc[nH]3)cc2)cc1")
"69.8% (inactive)"
